assay: Binding affinity for rat imidazoline receptor I-1 from crude P2 membranes
metric: Ki (nM)

# molecule, metric, observed.measurement
records = [
    ("C(=C\\c1ccccc1)/C1=NCCN1 [2-((E)-Styryl)-4,5-dihydro-1H-imidazole]", "Ki", 10),
]

The values you see were collected from BindingDB's records for doi:10.1016/j.bmcl.2003.09.092.
